# TEST: Cytotoxicity against human Raji cells assessed as cell viability at 1000 molar ratio after 48 hours relative to TPA
# Format: cell-based
# STUDY CONDITIONS: read-out: Activity
Could you please report measured viability at 48 h, 1000 molar ratio relative to TPA for the items listed next?
Reply numerically in %, unit not repeated.

Lookup: I have this compound here, C=C1CC[C@@H]2[C@](C)(CCC[C@]2(C)C(=O)O)[C@H]1C/C=C(\C)C(=O)O , and I need its recorded viability at 48 h, 1000 molar ratio relative to TPA.
Found: 60

Lookup: I have this compound here, CC(C)c1ccc2c(c1)CC[C@H]1[C@](C)(C(=O)O)CCC[C@]21C [DEHYDROABIETIC ACID] , and I need its recorded viability at 48 h, 1000 molar ratio relative to TPA.
Found: 70

Lookup: I have this compound here, CC1=C(/C=C/C(C)=C/C=C/C(C)=C/C=C/C=C(C)/C=C/C=C(C)/C=C/C2=C(C)CCCC2(C)C)C(C)(C)CCC1 , and I need its recorded viability at 48 h, 1000 molar ratio relative to TPA.
Found: 90

Lookup: I have this compound here, C=C/C(C)=C/C[C@H]1C(=C)CC[C@@H]2[C@]1(C)CCC[C@]2(C)C(=O)O , and I need its recorded viability at 48 h, 1000 molar ratio relative to TPA.
Found: 60

Lookup: I have this compound here, C=C[C@]1(C)C=C2CC[C@@H]3[C@](C)(CCC[C@@]3(C)C(=O)O)[C@H]2CC1 , and I need its recorded viability at 48 h, 1000 molar ratio relative to TPA.
Found: 70

Lookup: I have this compound here, C=C1CC[C@@H]2[C@](C)(CCC[C@]2(C)C(=O)O)[C@H]1C/C=C(\C)C=O , and I need its recorded viability at 48 h, 1000 molar ratio relative to TPA.
Found: 70

* * *

Could you please report measured Activity for the items listed next?
# Test system: Raji
# TEST: Inhibition of 12-O-tetradecanoylphorbol 13-acetate-induced Epstein-Barr virus early antigen activation in human Raji cells assessed as EA induction at 10 mol ratio relative to TPA
# Type: cell-based
# Set-up: scale not given: the % may be the effect or the level left
# STUDY CONDITIONS: human gammaherpesvirus 4
Reply numerically in %, unit not repeated.

Lookup: I have this compound here, C=C/C(C)=C/C[C@H]1C(=C)CC[C@@H]2[C@]1(C)CCC[C@]2(C)C(=O)O , and I need its recorded Activity.
Found: 90.5

Lookup: I have this compound here, C=C[C@]1(C)C=C2CC[C@@H]3[C@](C)(CCC[C@@]3(C)C(=O)O)[C@H]2CC1 , and I need its recorded Activity.
Found: 91.9

Lookup: I have this compound here, CC(C)c1ccc2c(c1)CC[C@H]1[C@](C)(C(=O)O)CCC[C@]21C [DEHYDROABIETIC ACID] , and I need its recorded Activity.
Found: 97.9

Lookup: I have this compound here, C=C1CC[C@@H]2[C@](C)(CCC[C@]2(C)C(=O)O)[C@H]1C/C=C(\C)C=O , and I need its recorded Activity.
Found: 91.4

Lookup: I have this compound here, C=C1CC[C@@H]2[C@](C)(CCC[C@]2(C)C(=O)O)[C@H]1C/C=C(\C)C(=O)O , and I need its recorded Activity.
Found: 93.4

Lookup: I have this compound here, CC1=C(/C=C/C(C)=C/C=C/C(C)=C/C=C/C=C(C)/C=C/C=C(C)/C=C/C2=C(C)CCCC2(C)C)C(C)(C)CCC1 , and I need its recorded Activity.
Found: 100

Origin of measurements: ChEMBL document CHEMBL1137817
